# Test Target: T1, recombinant human CD70 protein (Acrobiosystems: CDL-H82Q9) (human, UniProt P32970 39-193)
# T1 construct: Bought from Acrobiosystems; The whole natural entry is named; also called human CD70His fusion protein; recombinant human CD70 antigen having a C-terminal human IgG Fc tag
# T1 sequence (looked up): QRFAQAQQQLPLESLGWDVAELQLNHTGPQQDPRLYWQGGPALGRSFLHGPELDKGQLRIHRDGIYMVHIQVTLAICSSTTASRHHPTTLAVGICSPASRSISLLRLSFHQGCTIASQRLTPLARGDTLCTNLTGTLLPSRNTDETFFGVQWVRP
# Test Details: flow cytometry: CAR on CD70-knockout T cells stained with biotinylated human CD70 protein (100 µg/ml) and PE-Streptavidin
Quantity Name: POS (% of cells in the CD70-PE positive gate) (%)
Supply the numeric figure in %, leaving out any unit text.

Query: Fill in reported POS (% of cells in the CD70-PE positive gate) for this entry: CD70KO-CAR-L2 (receptor, The sheet names the CD70-knockout T cells that carry CD70-CAR-L2; also called CD70-CAR-L2) chimeric antigen receptor chain: EVQLVESGGGLVQAGGSLRLSCAASGFTVDDYVIGWFRQAPGKEHEGVSCISSNDGSTWYADSVKGRFTISSDNAKNTMYLQMNSLKPEDTAVYYCAAKYAPYGLEYWEGGMDYWGKGTLVTVSSTTTPAPRPPTPAPTIASQPLSLRPEACRPAAGGAVHTRGLDFACDIYIWAPLAGTCGVLLLSLVITLYCKRGRKKLLYIFKQPFMRPVQTTQEEDGCSCRFPEEEEGGCELRVKFSRSADAPAYKQGQNQLYNELNLGRREEYDVLDKRRGRDPEMGGKPRRKNPQEGLYNELQKDKMAEAYSEIGMKGERRRGKGHDGLYQGLSTATKDTYDALHMQALPPR
Result: 62.6

Query: Fill in reported POS (% of cells in the CD70-PE positive gate) for this entry: CD70KO-CAR-7D (receptor, The sheet names the CD70-knockout T cells that carry CD70-CAR-7D; also called CD70-CAR-7D) chimeric antigen receptor chain: EVQLVESGGGLVQAGGSLRLSCAASGFTFDDYAIGWFRQAPGKEQEGVSCIRRSDGSTWYANSVKGRFTISNDNAKNTVYLQMNSLKPEDTAVYYCAVDRYGQSWHEGRGALDAWGQGTLVTVSSTTTPAPRPPTPAPTIASQPLSLRPEACRPAAGGAVHTRGLDFACDIYIWAPLAGTCGVLLLSLVITLYCKRGRKKLLYIFKQPFMRPVQTTQEEDGCSCRFPEEEEGGCELRVKFSRSADAPAYKQGQNQLYNELNLGRREEYDVLDKRRGRDPEMGGKPRRKNPQEGLYNELQKDKMAEAYSEIGMKGERRRGKGHDGLYQGLSTATKDTYDALHMQALPPR
Result: 78.4

Query: Fill in reported POS (% of cells in the CD70-PE positive gate) for this entry: CD70KO-CAR-5B (receptor, The sheet names the CD70-knockout T cells that carry CD70-CAR-5B; also called CD70-CAR-5B) chimeric antigen receptor chain: QVQLVESGGGLVQAGGSLRLSCAASGFTFDDYAIGWFRQAPGKEPEGVSCFRSSDGNIYYSDSVRGRFTISSDNAKNTVYLQMNRLKPEDTAVYYCAAYSVLLRPWVLCEGSYDYWGQGTQVTVSSTTTPAPRPPTPAPTIASQPLSLRPEACRPAAGGAVHTRGLDFACDIYIWAPLAGTCGVLLLSLVITLYCKRGRKKLLYIFKQPFMRPVQTTQEEDGCSCRFPEEEEGGCELRVKFSRSADAPAYKQGQNQLYNELNLGRREEYDVLDKRRGRDPEMGGKPRRKNPQEGLYNELQKDKMAEAYSEIGMKGERRRGKGHDGLYQGLSTATKDTYDALHMQALPPR
Result: 57.8
